Test: Plasma pharmacokinetics after oral administration of MNP to parasitized calves
Type: in vivo
Details: bovine, plasma, po, 2.5 mg/kg

>  <Compound String>
C[C@](C#N)(COc1cc(C#N)ccc1C(F)(F)F)NC(=O)c1ccc(SC(F)(F)F)cc1

>  <AUC (ng·h/mL)>
1710

$$$$

----------
Assay: Plasma pharmacokinetics after oral administration of MNP to parasitized calves
Type: in vivo
Details: bovine, plasma, po, 2.5 mg/kg
Measured Attribute: Tmax (h)

>  <Molecule>
C[C@](C#N)(COc1cc(C#N)ccc1C(F)(F)F)NC(=O)c1ccc(SC(F)(F)F)cc1 [MNP, monepantel]

>  <Data Value>
8

$$$$
